- Study target: BbLDH (Borreliella burgdorferi, UniProt O51114)
- Construct: we expressed and purified a full-length N-terminal His- and FLAG-tagged BB_0087 recombinant protein (rBB_0087); 10xHis (N); FLAG (N); made in house; host or cells: E. coli Rosetta-gami 2 (DE3)
- Sequence (O51114 whole entry): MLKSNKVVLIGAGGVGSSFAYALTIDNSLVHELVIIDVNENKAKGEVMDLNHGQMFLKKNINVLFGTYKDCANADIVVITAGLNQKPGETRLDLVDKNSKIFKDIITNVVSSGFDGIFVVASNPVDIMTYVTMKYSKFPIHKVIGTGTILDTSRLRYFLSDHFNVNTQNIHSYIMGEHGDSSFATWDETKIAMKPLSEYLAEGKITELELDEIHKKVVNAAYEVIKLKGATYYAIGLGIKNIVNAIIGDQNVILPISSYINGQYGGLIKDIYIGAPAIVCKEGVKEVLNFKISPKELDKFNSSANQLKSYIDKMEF
- Assay name: Enzyme kinetics of inhibition, lactate to pyruvate reaction, NADH read at OD340
- Assay type: biochemical
- Experimental setup: Fig. 1F
- Description: The enzyme kinetics of BbLDH, with substrates pyruvate or lactate, was monitored by the reduction or oxidation of NADH at OD340 as previously described ([92]) using a Varioskan LUX multimode microplate reader (Thermo Fisher Scientific, Rockford, IL) with minor modifications. […] The conversion of lactate to pyruvate activity was measured at 37°C in sodium bicarbonate buffer (pH 7.0) containing 100 ng of BbLDH, 1 mM NAD^+, 0–300 mM sodium L-lactate, with/without 3 mM FBP. […]
pKi: −log10 of the molar value.

{"Compound": "Cc1cc2c(C(C)C)c(O)c(O)c(C=O)c2c(O)c1-c1c(C)cc2c(C(C)C)c(O)c(O)c(C=O)c2c1O [gossypol]", "pKi": 4.89}

###

Quick list: pKi per entry.
- Study target: BbLDH (Borreliella burgdorferi)
- Construct: we expressed and purified a full-length N-terminal His- and FLAG-tagged BB_0087 recombinant protein (rBB_0087); 10xHis (N); FLAG (N); made in house; host or cells: E. coli Rosetta-gami 2 (DE3)
- Assay name: Enzyme kinetics of inhibition with varying pyruvate as substrate, 0–100 µM inhibitor
- Format: biochemical
pKi: −log10 of the molar value.

{"Molecule": "COc1ccc2c(c1)O[C@H]1c3ccc(O)cc3OC[C@@H]21 (stereo in doubt)", "pKi": 3.69}
{"Molecule": "Cc1cc2c(C(C)C)c(O)c(O)c(C=O)c2c(O)c1-c1c(C)cc2c(C(C)C)c(O)c(O)c(C=O)c2c1O", "pKi": 4.44}
{"Molecule": "CCC(C)(O)C(=O)OC1C(=O)OC2CC3C(C)=CC(O)C(O)C3(C)C3C4(O)OCC23C1C(C)C4O (stereo not shown)", "pKi": 4.18}
{"Molecule": "CCC(C)c1occ2c(O)c(C(=O)O)c(=O)cc-2c1C (stereo not shown)", "pKi": 3.46}
